- assay-system: T1, human CD4 on cells (SKW3 cells; human PBMCs) (human, UniProt P01730 26-458)
- T1 construct: whole, on cells; SKW3 CD4 knockout cells served as the negative cell line; also called hCD4
- assay-info: FACS binning on SKW3 cells pre-incubated with supernatant; competitor OKT4-A488, its signal read; background 2163, max binding 8200
readout-name: SKW3 FACS Binning OKT4 A488

[[record]]
binder = "75110_13C13A (antibody, IgG1, V domains shown, Tested as non-clonal AlivaMab Mouse Kappa hybridoma supernatant: human variable domains and human kappa, mouse Fc) VH: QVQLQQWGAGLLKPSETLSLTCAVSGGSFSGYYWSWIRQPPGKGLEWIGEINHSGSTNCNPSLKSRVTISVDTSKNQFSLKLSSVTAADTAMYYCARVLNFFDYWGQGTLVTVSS VL: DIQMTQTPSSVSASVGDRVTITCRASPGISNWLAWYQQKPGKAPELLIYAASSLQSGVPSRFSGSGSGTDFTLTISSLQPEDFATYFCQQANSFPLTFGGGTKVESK"
result = 9760

[[record]]
binder = "75110_01D24A (antibody, V domains shown, Tested as non-clonal AlivaMab Mouse Kappa hybridoma supernatant: human variable domains and human kappa, mouse Fc) VH: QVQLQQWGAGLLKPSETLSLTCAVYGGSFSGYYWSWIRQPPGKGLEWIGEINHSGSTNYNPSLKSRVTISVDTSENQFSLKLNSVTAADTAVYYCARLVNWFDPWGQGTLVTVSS VL: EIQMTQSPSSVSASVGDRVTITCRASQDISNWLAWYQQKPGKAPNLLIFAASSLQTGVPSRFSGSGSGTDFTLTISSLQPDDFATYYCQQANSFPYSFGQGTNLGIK"
result = 11100

[[record]]
binder = "75110_06D16A (antibody, V domains shown, Tested as non-clonal AlivaMab Mouse Kappa hybridoma supernatant: human variable domains and human kappa, mouse Fc (detected with anti-mouse Fc)) VH: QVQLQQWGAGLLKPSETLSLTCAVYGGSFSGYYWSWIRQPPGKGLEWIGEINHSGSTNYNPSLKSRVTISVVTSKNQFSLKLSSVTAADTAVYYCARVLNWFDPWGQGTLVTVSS VL: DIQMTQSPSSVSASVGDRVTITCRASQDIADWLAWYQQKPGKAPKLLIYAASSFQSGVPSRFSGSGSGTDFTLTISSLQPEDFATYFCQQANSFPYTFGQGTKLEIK"
result = 9980

[[record]]
binder = "75110_12C19A (antibody, IgG1, V domains shown, Tested as non-clonal AlivaMab Mouse Kappa hybridoma supernatant: human variable domains and human kappa, mouse Fc) VH: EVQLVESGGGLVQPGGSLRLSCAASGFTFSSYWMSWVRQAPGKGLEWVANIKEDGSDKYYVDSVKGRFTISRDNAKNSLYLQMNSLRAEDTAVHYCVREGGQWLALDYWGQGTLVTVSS VL: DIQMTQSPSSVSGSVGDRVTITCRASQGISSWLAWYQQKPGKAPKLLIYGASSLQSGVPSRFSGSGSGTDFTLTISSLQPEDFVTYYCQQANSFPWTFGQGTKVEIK"
result = 9580


Data provenance: patent US20220112288A1
